Field: pKi. Provide a value for each of the compounds that follow.
- testedTarget: Adenosine receptor A1 (Rattus norvegicus)
- Sequence (P25099 whole entry): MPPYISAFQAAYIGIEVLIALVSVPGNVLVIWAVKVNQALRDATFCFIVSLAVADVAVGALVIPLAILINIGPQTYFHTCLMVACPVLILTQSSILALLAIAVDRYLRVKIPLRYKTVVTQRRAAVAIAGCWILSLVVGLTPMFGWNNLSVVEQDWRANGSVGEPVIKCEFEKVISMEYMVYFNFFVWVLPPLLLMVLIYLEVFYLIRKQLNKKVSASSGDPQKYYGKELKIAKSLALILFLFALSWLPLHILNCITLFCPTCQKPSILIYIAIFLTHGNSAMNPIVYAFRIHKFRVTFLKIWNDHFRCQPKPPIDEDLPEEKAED
# pKi is unitless: minus log10 of the molar concentration; print number only

Input: Name the reported pKi value associated with the compound "CCCN1C(=O)N2C[C@@H](CC)N=C2c2[nH]c(C34CC5CC(CC3C5)C4)nc21"
Output: 9.25

Input: Also, "CCCn1c(=O)c2[nH]c(C34CC5CC(CC(C5)C3)C4)nc2n(CCC)c1=O" please.
Output: 8.82

Input: Also, "CCCn1c(=O)c2nc(C34CC5CC(CC3C5)C4)[nH]c2n(CCC)c1=S" please.
Output: 9.72

---

- Test system: Mus musculus
- experimentNotes: Retention time in (R)-PIA) induced avoidance test (performed in mice) for antagonistic activity after peroral administration of 0.08 mg/kg
- Assay type: functional, organism-based
- Design: dose 0.08 mg/kg
Field: Retention time. Provide a value for each of the compounds that follow.
Kindly provide the numeric value in s only, without the unit symbol.

Input: Tell me reported Retention time for "CCCn1c(=O)c2nc(C34CC5CC(CC3C5)C4)[nH]c2n(CCC)c1=S" , tested with Mus musculus.
Output: 124

Input: Also, CCCn1c(=O)c2nc(C3CC4CCCC4C3)[nH]c2n(CCC)c1=O (centres undefined) please.
Output: 83.2

Input: Also, "CCCn1c(=O)c2nc(C3CCCC3)[nH]c2n(CCc2ccc(NC(C)=O)cc2)c1=O" please.
Output: 75.4

Input: Also, CCCn1c(=O)c2nc(C3CCC(=O)C3)[nH]c2n(CCc2ccc(N)cc2)c1=O (centres undefined) please.
Output: 18.7

---

- Test system: Rattus norvegicus
- experimentNotes: Acquisition time in Scopolamine induced avoidance test (performed in rat) for antagonistic activity after p.o. administration of 0.31 mg/kg
- Assay type: functional
- testSettings: route oral
outcomeMeasure: Acquisition time (s)
Kindly provide the numeric value in s only, without the unit symbol.

Input: Name the reported Acquisition time value associated with the compound "CCCn1c(=O)c2nc(C34CC5CC(CC(C5)C3)C4)[nH]c2n(CCC)c1=O"
Output: 16.6

Input: Also, "CCCn1c(=O)c2c(nc(/C=C/c3ccc(OC)c(OC)c3)n2C)n(CCC)c1=O" please.
Output: 11.8

Input: Also, "Cn1c(=O)c2nc[nH]c2n(C)c1=O.O" please.
Output: 12.2

Input: Also, "CCCN1C(=O)N2C[C@@H](CC)N=C2c2[nH]c(C34CC5CC(CC3C5)C4)nc21" please.
Output: 14.1

Input: Also, CCCn1c(=O)c2nc(C3CC4CCCC4C3)[nH]c2n(CCC)c1=O (stereo not given) please.
Output: 11.1

Input: Also, "COc1cc(/C=C/c2nc3c(c(=O)n(C)c(=O)n3C)n2C)cc(OC)c1OC" please.
Output: 21.3

Input: Also, "CCCn1c(=O)c2[nH]c(C3CCCC3)nc2n(CCC)c1=S" please.
Output: 8.9

Input: Also, "CCCn1c(=O)c2nc(C34CC5CC(CC3C5)C4)[nH]c2n(CCC)c1=S" please.
Output: 22.2

Input: Also, CCCn1c(=O)c2nc(C3CCC(=O)C3)[nH]c2n(CCc2ccc(N)cc2)c1=O (stereo not given) please.
Output: 13.1

Input: Also, "CCCn1c(=O)c2nc(C3CCCC3)[nH]c2n(CCc2ccc(NC(=O)C(C)C)cc2)c1=O" please.
Output: 10.1

---

Field: Retention time. Provide a value for each of the compounds that follow.
- Test system: Mus musculus
- experimentNotes: Retention time in (R)-PIA) induced avoidance test (performed in mice) for antagonistic activity after p.o. administration of 1.25 mg/kg
- Format: functional, organism-based
- Parameters: dose 1.25 mg/kg
Kindly provide the numeric value in s only, without the unit symbol.

Input: Name the reported Retention time value associated with the compound "CCCn1c(=O)c2nc(C34CC5CC(CC(C5)C3)C4)[nH]c2n(CCC)c1=O"
Output: 490

Input: Also, "CCCN1C(=O)N2C[C@H](CC)N=C2c2[nH]c(C34CC5CC(CC3C5)C4)nc21" please.
Output: 351

Input: Also, CCCn1c(=O)c2nc(C3CCC(=O)C3)[nH]c2n(CCc2ccc(N)cc2)c1=O (centres undefined) please.
Output: 19.1

Input: Also, "CCCn1c(=O)c2nc(C(C3CC3)C3CC3)[nH]c2n(CCC)c1=S" please.
Output: 149

---

- System: Mus musculus
- experimentNotes: Acquisition time in (R)-PIA) induced avoidance test (performed in mice) for antagonistic activity after peroral administration of 0.02 mg/kg
- testSettings: route oral
outcomeMeasure: Acquisition time (s)
Kindly provide the numeric value in s only, without the unit symbol.

Input: Name the reported Acquisition time value associated with the compound "CCCn1c(=O)c2nc(C34CC5CC(CC(C5)C3)C4)[nH]c2n(CCC)c1=O"
Output: 10.1

Input: Also, "CCCn1c(=O)c2nc(C34CC5CC(CC3C5)C4)[nH]c2n(CCc2ccc(N)cc2)c1=O" please.
Output: 18.1

Input: Also, "CCCN1C(=O)N2C[C@@H](CC)N=C2c2[nH]c(C34CC5CC(CC3C5)C4)nc21" please.
Output: 13.6
